Target: HA-tagged human PI4KIIIα (Homo sapiens)
Sequence (P42356 whole entry): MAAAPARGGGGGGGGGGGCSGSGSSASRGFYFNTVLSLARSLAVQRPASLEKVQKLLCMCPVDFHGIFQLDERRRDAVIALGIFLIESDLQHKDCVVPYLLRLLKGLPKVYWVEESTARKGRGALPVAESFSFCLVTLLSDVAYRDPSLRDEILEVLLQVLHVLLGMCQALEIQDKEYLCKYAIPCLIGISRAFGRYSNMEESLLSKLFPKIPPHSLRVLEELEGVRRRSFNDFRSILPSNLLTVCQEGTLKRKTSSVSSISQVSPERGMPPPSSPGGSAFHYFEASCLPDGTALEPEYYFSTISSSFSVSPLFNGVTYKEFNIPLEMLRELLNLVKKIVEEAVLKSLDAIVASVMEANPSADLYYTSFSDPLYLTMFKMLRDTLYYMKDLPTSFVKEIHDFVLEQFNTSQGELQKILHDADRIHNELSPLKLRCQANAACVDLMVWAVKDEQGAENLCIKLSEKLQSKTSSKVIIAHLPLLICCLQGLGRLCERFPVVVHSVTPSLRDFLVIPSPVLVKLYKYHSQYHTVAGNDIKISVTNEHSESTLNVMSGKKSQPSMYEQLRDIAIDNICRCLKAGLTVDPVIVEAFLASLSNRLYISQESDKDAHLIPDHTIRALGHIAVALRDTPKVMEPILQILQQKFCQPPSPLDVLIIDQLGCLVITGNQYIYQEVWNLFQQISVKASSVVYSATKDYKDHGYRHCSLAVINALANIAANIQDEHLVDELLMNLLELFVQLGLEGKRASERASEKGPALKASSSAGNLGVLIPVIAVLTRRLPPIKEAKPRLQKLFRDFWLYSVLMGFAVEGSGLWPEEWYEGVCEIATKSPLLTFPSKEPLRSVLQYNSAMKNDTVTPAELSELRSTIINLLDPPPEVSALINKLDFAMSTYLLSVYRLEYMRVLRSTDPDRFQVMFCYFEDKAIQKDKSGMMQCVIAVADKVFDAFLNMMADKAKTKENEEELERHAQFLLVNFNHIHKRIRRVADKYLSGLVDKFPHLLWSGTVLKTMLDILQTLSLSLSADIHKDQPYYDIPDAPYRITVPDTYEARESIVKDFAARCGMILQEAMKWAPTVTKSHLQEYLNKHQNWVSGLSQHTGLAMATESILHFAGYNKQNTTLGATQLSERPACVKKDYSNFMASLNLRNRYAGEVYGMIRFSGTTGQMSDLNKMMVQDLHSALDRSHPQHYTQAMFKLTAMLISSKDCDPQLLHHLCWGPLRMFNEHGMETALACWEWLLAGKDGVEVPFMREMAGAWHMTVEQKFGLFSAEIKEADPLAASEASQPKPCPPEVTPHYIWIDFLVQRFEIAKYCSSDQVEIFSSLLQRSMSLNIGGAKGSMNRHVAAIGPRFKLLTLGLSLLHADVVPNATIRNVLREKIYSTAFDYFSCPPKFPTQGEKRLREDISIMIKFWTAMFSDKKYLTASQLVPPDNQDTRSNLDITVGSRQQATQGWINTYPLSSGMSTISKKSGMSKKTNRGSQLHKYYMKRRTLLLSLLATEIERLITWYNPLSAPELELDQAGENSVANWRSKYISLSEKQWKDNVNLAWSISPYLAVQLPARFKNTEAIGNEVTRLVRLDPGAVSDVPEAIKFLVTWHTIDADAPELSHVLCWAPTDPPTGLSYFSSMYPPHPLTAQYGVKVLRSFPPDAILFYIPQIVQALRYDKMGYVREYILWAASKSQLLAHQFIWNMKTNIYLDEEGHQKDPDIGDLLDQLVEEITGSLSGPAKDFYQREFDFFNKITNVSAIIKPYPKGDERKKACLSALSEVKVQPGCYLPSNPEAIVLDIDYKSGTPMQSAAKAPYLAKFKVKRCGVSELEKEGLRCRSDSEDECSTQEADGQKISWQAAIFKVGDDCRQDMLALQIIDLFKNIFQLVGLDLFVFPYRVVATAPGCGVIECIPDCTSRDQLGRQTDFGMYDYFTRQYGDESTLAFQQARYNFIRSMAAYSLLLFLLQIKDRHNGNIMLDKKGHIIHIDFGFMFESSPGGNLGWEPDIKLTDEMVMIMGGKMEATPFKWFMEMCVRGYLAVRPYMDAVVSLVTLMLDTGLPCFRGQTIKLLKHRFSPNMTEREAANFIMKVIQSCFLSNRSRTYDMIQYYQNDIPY
Test: PI4KIIIα immunoprecipitate kinase assay with [γ-32P]-ATP
Type: biochemical
Conditions: PI4KIIIα; read-out: IC50 IIIa
assay_metric: IC50 (µM)
Give bare numbers, in µM.

Recorded results for 5 compounds are shown here.
CC(=O)Nc1nc(C)c(-c2ccc(Cl)c(S(=O)(=O)Nc3ccc(O)cc3)c2)s1 0.749
CC(=O)Nc1nc(C)c(-c2ccc(Cl)c(S(=O)(=O)Nc3ccccc3)c2)s1 0.749
CC(=O)Nc1nc(C)c(-c2ccc(Br)c(S(=O)(=O)NCCN3CCOCC3)c2)s1 4.6
CC(=O)Nc1nc(C)c(-c2ccc(Cl)c(S(=O)(=O)NCCN3CCOCC3)c2)s1 10.4
COc1ccc(-c2sc(NC(=O)C3CCCC3)nc2C)cc1S(=O)(=O)Nc1ccc(CC#N)cc1 26.7

For the next question, use this compound.
Record request: IC50 value, item CC(=O)Nc1nc(C)c(-c2ccc(Br)c(S(=O)(=O)Nc3ccc(CC#N)cc3)c2)s1 7.1
